system: 282377-053-R-J1-PDC complex spheroid viability; assay: Anticancer human tumor 282377-053-R-J1-PDC patient-derived colon adenocarcinoma cell line growth inhibition [RAS]; settings: second compound 0.00949 µM; first compound 0.1 µM; stronger effect = lower value
Note to self: use criterion met only for viability, T/C readings below 80%; a reading exactly at 80% still gets criterion not met.

# input Please let me know if NC1c2ccccc2OC12CCN(c1cnc3c(N4CCCc5ncccc54)n[nH]c3n1)CC2 (centres undefined) + CCn1c(-c2cc(N3CCN(C)CC3)cnc2C(C)OC)c2c3cc(ccc31)-c1csc(n1)CC(NC(=O)C1CC1C)C(=O)N1CCCC(N1)C(=O)OCC(C)(C)C2 shows viability, T/C below 80%.
# output criterion not met

# input Please let me know if C[C@@H](NC(=O)c1ncnc(N)c1Cl)c1ncc(C(=O)Nc2cc(C(F)(F)F)c(Cl)cn2)s1 + CCn1c(-c2cc(N3CCN(C)CC3)cnc2C(C)OC)c2c3cc(ccc31)-c1csc(n1)CC(NC(=O)C1CC1C)C(=O)N1CCCC(N1)C(=O)OCC(C)(C)C2 shows viability, T/C below 80%.
# output criterion not met

# input Please let me know if CC(C)n1nc(-c2ccc3oc(N)nc3c2)c2c(N)ncnc21 + CCn1c(-c2cc(N3CCN(C)CC3)cnc2C(C)OC)c2c3cc(ccc31)-c1csc(n1)CC(NC(=O)C1CC1C)C(=O)N1CCCC(N1)C(=O)OCC(C)(C)C2 shows viability, T/C below 80%.
# output criterion met

Consider the record given below.
# input Please let me know if C=CC(=O)Nc1cc(Nc2nccc(-c3cn(C)c4ccccc34)n2)c(OC)cc1N(C)CCN(C)C + CCn1c(-c2cc(N3CCN(C)CC3)cnc2C(C)OC)c2c3cc(ccc31)-c1csc(n1)CC(NC(=O)C1CC1C)C(=O)N1CCCC(N1)C(=O)OCC(C)(C)C2 shows viability, T/C below 80%.
# output criterion not met

* * *

Catalogue of viability, T/C readings, one per entry.
tested on: 282377-053-R-J1-PDC complex spheroid viability; test: Anticancer human tumor 282377-053-R-J1-PDC cell line growth inhibition [RAS]; conditions: second compound 3.16 µM; first compound 3.16 µM; stronger effect = lower value;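 also: spheroids exposed to agents for seven days before readout; luminescence viability as percent of DMSO vehicle control wells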
Just the number please, in %, no unit attached.

The compound listed as NC1c2ccccc2OC12CCN(c1cnc3c(N4CCCc5ncccc54)n[nH]c3n1)CC2 (stereo not drawn) + C#Cc1c(F)ccc2cc(O)cc(-c3ncc4c(N5CC6CCC(C5)N6)nc(OCC56CCCN5CC(F)C6)nc4c3F)c12 has a reported viability, T/C of 90.4

The compound listed as CC1(O)CCCC1n1c(=O)c(C(F)F)cc2cnc(NC3CCN(S(C)(=O)=O)CC3)nc21 (stereo not drawn) + C#Cc1c(F)ccc2cc(O)cc(-c3ncc4c(N5CC6CCC(C5)N6)nc(OCC56CCCN5CC(F)C6)nc4c3F)c12 has a reported viability, T/C of 113

The compound listed as Cc1nc(N2CCC3(CC2)COC(C)C3N)c(CO)nc1Sc1ccnc(N)c1Cl (stereo not drawn) + C#Cc1c(F)ccc2cc(O)cc(-c3ncc4c(N5CC6CCC(C5)N6)nc(OCC56CCCN5CC(F)C6)nc4c3F)c12 has a reported viability, T/C of 98.2

The compound listed as CC(C)NCC(C(=O)N1CCN(c2ncnc3c2C(C)CC3O)CC1)c1ccc(Cl)cc1 (stereo not drawn) + C#Cc1c(F)ccc2cc(O)cc(-c3ncc4c(N5CC6CCC(C5)N6)nc(OCC56CCCN5CC(F)C6)nc4c3F)c12 has a reported viability, T/C of 92.1

Query compound follows.
The compound listed as CC(Nc1ccc2c(c1)OCCn1cc(N3C(=O)OCC3C(F)F)nc1-2)C(N)=O (stereo not drawn) + C#Cc1c(F)ccc2cc(O)cc(-c3ncc4c(N5CC6CCC(C5)N6)nc(OCC56CCCN5CC(F)C6)nc4c3F)c12 has a reported viability, T/C of 76.6
